target: Stimulator of interferon genes protein (Homo sapiens); assay: Activation of wild-type human STING expressed in human THP1-Dual cells co-expressing IRF3-activated ISRE assessed as IRF3 reporter activation measured after 7 hrs by luciferase reporter gene assay; assay type: cell-based
Sequence (Q86WV6 whole entry): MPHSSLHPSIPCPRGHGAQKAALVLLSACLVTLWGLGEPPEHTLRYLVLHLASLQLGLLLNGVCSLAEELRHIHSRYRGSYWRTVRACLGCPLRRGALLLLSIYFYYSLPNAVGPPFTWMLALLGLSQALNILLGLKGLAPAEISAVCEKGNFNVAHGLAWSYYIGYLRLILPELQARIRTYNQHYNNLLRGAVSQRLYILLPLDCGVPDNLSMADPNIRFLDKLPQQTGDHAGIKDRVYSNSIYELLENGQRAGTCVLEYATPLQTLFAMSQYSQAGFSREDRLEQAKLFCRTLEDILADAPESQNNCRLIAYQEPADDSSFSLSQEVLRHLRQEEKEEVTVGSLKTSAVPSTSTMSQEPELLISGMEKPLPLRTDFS
The label is Yes for EC50 below 50 nM and No for EC50 equal to or exceeding 50 nM.

Reference set (10 entries):
* CC(C)OC(=O)OCO[P@]1(=O)OC[C@H]2O[C@@H](n3cnc4c(N)ncnc43)[C@H](F)[C@@H]2O[P@](=O)(OCOC(=O)OC(C)C)OC[C@H]2O[C@@H](n3cnc4c(N)ncnc43)[C@H](F)[C@@H]2O1 | Yes
* CC(C)OC(=O)OCO[P@@]1(=O)OC[C@H]2O[C@@H](n3cnc4c(N)ncnc43)[C@H](F)[C@@H]2O[P@](=O)(OCOC(=O)OC(C)C)OC[C@H]2O[C@@H](n3cnc4c(N)ncnc43)[C@H](F)[C@@H]2O1 | No
* CCC(CC)C(=O)OCO[P@]1(=O)OC[C@H]2O[C@@H](n3cnc4c(N)ncnc43)[C@H](F)[C@@H]2O[P@](=O)(OCOC(=O)C(CC)CC)OC[C@H]2O[C@@H](n3cnc4c(N)ncnc43)[C@H](F)[C@@H]2O1 | Yes
* CC(C)OC(=O)OCO[P@]1(=O)OC[C@H]2O[C@@H](n3cnc4c(N)ncnc43)[C@H](F)[C@@H]2OP(=O)(O)OC[C@H]2O[C@@H](n3cnc4c(N)ncnc43)[C@H](F)[C@@H]2O1 | No
* CC(C)(C)C(=O)OCS[P@@]1(=O)OC[C@H]2O[C@@H](n3cnc4c(N)ncnc43)[C@H](F)[C@@H]2O[P@](=O)(SCOC(=O)C(C)(C)C)OC[C@H]2O[C@@H](n3cnc4c(N)ncnc43)[C@H](F)[C@@H]2O1 | Yes
* Nc1ncnc2c1ncn2[C@@H]1O[C@@H]2COP(=O)(O)O[C@H]3[C@@H](F)[C@H](n4cnc5c(N)ncnc54)O[C@@H]3COP(=O)(O)O[C@H]2[C@H]1F | No
* CC(C)(C)C(=O)OCO[P@]1(=O)OC[C@H]2O[C@@H](n3cnc4c(N)ncnc43)[C@H](F)[C@@H]2O[P@](=O)(OCOC(=O)C(C)(C)C)OC[C@H]2O[C@@H](n3cnc4c(N)ncnc43)[C@H](F)[C@@H]2O1 | Yes
* Nc1ncnc2c1ncn2[C@@H]1O[C@@H]2CO[P@@](=O)(OCOC(=O)c3ccccc3)O[C@H]3[C@@H](F)[C@H](n4cnc5c(N)ncnc54)O[C@@H]3CO[P@](=O)(OCOC(=O)c3ccccc3)O[C@H]2[C@H]1F | Yes
* Nc1ncnc2c1ncn2[C@@H]1O[C@@H]2CO[P@@](=O)(OCOC(=O)c3ccccc3)O[C@H]3[C@@H](F)[C@H](n4cnc5c(N)ncnc54)O[C@@H]3COP(=O)(O)O[C@H]2[C@H]1F | No
* CC(C)(C)C(=O)OCO[P@]1(=O)OC[C@H]2O[C@@H](n3cnc4c(N)ncnc43)[C@H](F)[C@@H]2OP(=O)(O)OC[C@H]2O[C@@H](n3cnc4c(N)ncnc43)[C@H](F)[C@@H]2O1 | No

I'd appreciate it if you could check whether `Nc1ncnc2c1ncn2[C@@H]1O[C@@H]2CO[P@@](=O)(S)O[C@H]3[C@@H](F)[C@H](n4cnc5c(N)ncnc54)O[C@@H]3CO[P@](=O)(S)O[C@H]2[C@H]1F` has EC50 smaller than 50 nM.
No

Quick check: does `Nc1ncnc2c1ncn2[C@@H]1O[C@@H]2CO[P@@](=O)(S)O[C@H]3[C@@H](F)[C@H](n4cnc5c(N)ncnc54)O[C@@H]3CO[P@@](=O)(S)O[C@H]2[C@H]1F` have EC50 under 50 nM?
No

# check: EC50 < 50 nM for `CC(C)(C)C(=O)OCS[P@]1(=O)OC[C@H]2O[C@@H](n3cnc4c(N)ncnc43)[C@H](F)[C@@H]2O[P@](=O)(SCOC(=O)C(C)(C)C)OC[C@H]2O[C@@H](n3cnc4c(N)ncnc43)[C@H](F)[C@@H]2O1`
Yes

###

test: Stability in human plasma assessed as half life; assay type: ADME, cell-free
experimental endpoint: half-life (h)
Numbers only here, please. The scale is h.

- CC(C)(C)C(=O)OCO[P@@]1(=O)OC[C@H]2O[C@@H](n3cnc4c(N)ncnc43)[C@H](F)[C@@H]2O[P@](=O)(OCOC(=O)C(C)(C)C)OC[C@H]2O[C@@H](n3cnc4c(N)ncnc43)[C@H](F)[C@@H]2O1: 1

Now consider the entry below.
Input `CC(C)(C)C(=O)OCO[P@]1(=O)OC[C@H]2O[C@@H](n3cnc4c(N)ncnc43)[C@H](F)[C@@H]2O[P@](=O)(OCOC(=O)C(C)(C)C)OC[C@H]2O[C@@H](n3cnc4c(N)ncnc43)[C@H](F)[C@@H]2O1` . Output half-life: 1.17

###

molecular target: UniProt:Q86WV6; assay: Activation of wild-type human STING expressed in HEK293T cells co-expressing IRF3-activated ISRE assessed as IRF3 reporter activation measured after 30 mins by luciferase reporter gene assay; format: cell-based
experimental endpoint: log10 EC50 (log10 of the value in nM)
// units: nM (pre-log); metric: EC50; scale: log10

Known log10 EC50 results, listed for orientation:
• CC(C)(C)C(=O)OCS[P@]1(=O)OC[C@H]2O[C@@H](n3cnc4c(N)ncnc43)[C@H](F)[C@@H]2O[P@](=O)(SCOC(=O)C(C)(C)C)OC[C@H]2O[C@@H](n3cnc4c(N)ncnc43)[C@H](F)[C@@H]2O1 = 2.26
• Nc1ncnc2c1ncn2[C@@H]1O[C@@H]2CO[P@@](=O)(S)O[C@H]3[C@@H](F)[C@H](n4cnc5c(N)ncnc54)O[C@@H]3CO[P@@](=O)(S)O[C@H]2[C@H]1F = 3.85
• CCC(CC)C(=O)OCO[P@]1(=O)OC[C@H]2O[C@@H](n3cnc4c(N)ncnc43)[C@H](F)[C@@H]2OP(=O)(O)OC[C@H]2O[C@@H](n3cnc4c(N)ncnc43)[C@H](F)[C@@H]2O1 = 3.13
• Nc1ncnc2c1ncn2[C@@H]1O[C@@H]2CO[P@@](=O)(S)O[C@H]3[C@@H](F)[C@H](n4cnc5c(N)ncnc54)O[C@@H]3CO[P@](=O)(S)O[C@H]2[C@H]1F = 2.72

Lookup result for `CC(C)OC(=O)OCO[P@]1(=O)OC[C@H]2O[C@@H](n3cnc4c(N)ncnc43)[C@H](F)[C@@H]2O[P@](=O)(OCOC(=O)OC(C)C)OC[C@H]2O[C@@H](n3cnc4c(N)ncnc43)[C@H](F)[C@@H]2O1` ; measured log10 EC50: 2.49

###

# EC50 values compiled below
assay: Induction of TNF-alpha production in healthy human PBMC incubated for 16 hrs; format: functional, tissue-based
API: value field is a number in nM; no unit string.

Known EC50 results, listed for orientation:
• CC(C)(C)C(=O)OCS[P@]1(=O)OC[C@H]2O[C@@H](n3cnc4c(N)ncnc43)[C@H](F)[C@@H]2O[P@](=O)(SCOC(=O)C(C)(C)C)OC[C@H]2O[C@@H](n3cnc4c(N)ncnc43)[C@H](F)[C@@H]2O1 = 100
• CC(C)OC(=O)OCO[P@@]1(=O)OC[C@H]2O[C@@H](n3cnc4c(N)ncnc43)[C@H](F)[C@@H]2O[P@](=O)(OCOC(=O)OC(C)C)OC[C@H]2O[C@@H](n3cnc4c(N)ncnc43)[C@H](F)[C@@H]2O1 = 710
• CC(C)OC(=O)OCO[P@]1(=O)OC[C@H]2O[C@@H](n3cnc4c(N)ncnc43)[C@H](F)[C@@H]2O[P@](=O)(OCOC(=O)OC(C)C)OC[C@H]2O[C@@H](n3cnc4c(N)ncnc43)[C@H](F)[C@@H]2O1 = 350
• Nc1ncnc2c1ncn2[C@@H]1O[C@@H]2CO[P@@](=O)(S)O[C@H]3[C@@H](F)[C@H](n4cnc5c(N)ncnc54)O[C@@H]3CO[P@](=O)(S)O[C@H]2[C@H]1F = 7290
• Nc1ncnc2c1ncn2[C@@H]1O[C@@H]2COP(=O)(O)O[C@H]3[C@@H](F)[C@H](n4cnc5c(N)ncnc54)O[C@@H]3COP(=O)(O)O[C@H]2[C@H]1F = 12800

Notebook: `Nc1ncnc2c1ncn2[C@@H]1O[C@@H]2CO[P@@](=O)(S)O[C@H]3[C@@H](F)[C@H](n4cnc5c(N)ncnc54)O[C@@H]3CO[P@@](=O)(S)O[C@H]2[C@H]1F` , EC50 read as 9370

Entry `CCC(CC)C(=O)OCO[P@]1(=O)OC[C@H]2O[C@@H](n3cnc4c(N)ncnc43)[C@H](F)[C@@H]2O[P@](=O)(OCOC(=O)C(CC)CC)OC[C@H]2O[C@@H](n3cnc4c(N)ncnc43)[C@H](F)[C@@H]2O1` , EC50 reported as 20

###

assay: Potency index, ratio of test compound EC50 to prodrug EC50 for induction of TNF-alpha production in healthy human PBMC incubated for 16 hrs; assay type: functional
experimental endpoint: Ratio EC50
Just the number.

# count of solved cases: 7
• CC(C)OC(=O)OCO[P@]1(=O)OC[C@H]2O[C@@H](n3cnc4c(N)ncnc43)[C@H](F)[C@@H]2O[P@](=O)(OCOC(=O)OC(C)C)OC[C@H]2O[C@@H](n3cnc4c(N)ncnc43)[C@H](F)[C@@H]2O1 = 90
• CC(C)(C)C(=O)OCO[P@]1(=O)OC[C@H]2O[C@@H](n3cnc4c(N)ncnc43)[C@H](F)[C@@H]2O[P@](=O)(OCOC(=O)C(C)(C)C)OC[C@H]2O[C@@H](n3cnc4c(N)ncnc43)[C@H](F)[C@@H]2O1 = 279
• CC(C)(C)C(=O)OCS[P@@]1(=O)OC[C@H]2O[C@@H](n3cnc4c(N)ncnc43)[C@H](F)[C@@H]2O[P@](=O)(SCOC(=O)C(C)(C)C)OC[C@H]2O[C@@H](n3cnc4c(N)ncnc43)[C@H](F)[C@@H]2O1 = 82
• CC(C)OC(=O)OCO[P@@]1(=O)OC[C@H]2O[C@@H](n3cnc4c(N)ncnc43)[C@H](F)[C@@H]2O[P@](=O)(OCOC(=O)OC(C)C)OC[C@H]2O[C@@H](n3cnc4c(N)ncnc43)[C@H](F)[C@@H]2O1 = 45
• CCC(CC)C(=O)OCO[P@]1(=O)OC[C@H]2O[C@@H](n3cnc4c(N)ncnc43)[C@H](F)[C@@H]2O[P@](=O)(OCOC(=O)C(CC)CC)OC[C@H]2O[C@@H](n3cnc4c(N)ncnc43)[C@H](F)[C@@H]2O1 = 1485
• CC(C)(C)C(=O)OCS[P@]1(=O)OC[C@H]2O[C@@H](n3cnc4c(N)ncnc43)[C@H](F)[C@@H]2O[P@](=O)(SCOC(=O)C(C)(C)C)OC[C@H]2O[C@@H](n3cnc4c(N)ncnc43)[C@H](F)[C@@H]2O1 = 93
• CCC(CC)C(=O)OCO[P@@]1(=O)OC[C@H]2O[C@@H](n3cnc4c(N)ncnc43)[C@H](F)[C@@H]2O[P@](=O)(OCOC(=O)C(CC)CC)OC[C@H]2O[C@@H](n3cnc4c(N)ncnc43)[C@H](F)[C@@H]2O1 = 432

Now examine the next entry.
Sure, the documented Ratio EC50 for `CC(C)(C)C(=O)OCS[P@@]1(=O)OC[C@H]2O[C@@H](n3cnc4c(N)ncnc43)[C@H](F)[C@@H]2O[P@@](=O)(SCOC(=O)C(C)(C)C)OC[C@H]2O[C@@H](n3cnc4c(N)ncnc43)[C@H](F)[C@@H]2O1` is 146
